Numbers sourced from paper PMC4738331.

# TESTED SYSTEM: TDP-43 RRM1 (UniProt Q13148 96-185)
# Sequence (Q13148 96-185): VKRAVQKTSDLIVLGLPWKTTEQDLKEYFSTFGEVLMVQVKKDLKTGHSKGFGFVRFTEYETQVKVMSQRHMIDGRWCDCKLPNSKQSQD
# EXPERIMENT: fluorescence anisotropy; Anisotropy: 50 mM Tris, 100 mM NaCl, pH 8.0, 10 C, 0.1 uM probe, 0-30 uM protein (RNasin for RNA); pull-down: same buffer on Ni resin, room temperature, 1 h, eluted with 1 M NaCl
# EXPERIMENTAL CONTEXT: protein: recombinant; tags: N-term His6 + thrombin site + GSSGSSG linker; His removed by thrombin for anisotropy, kept for pull-down; label: 5'-fluorescein
Catalogue of Kd values
PROPERTY NAME: Kd (nM)

>>> df
                                     binder  recorded_value
0         TGTGTGTG (ssDNA) [Fl-(TG)4 ssDNA]              52
1  UGUGUGUG (ssDNA, DNA with T replaced by U) [Fl-(UG)4 ssDNA]              61
